- Procedure summary: endothelial E-selectin expression blockers – imaging, HUVEC, immunofluorescence, MLSMR starter and 10KST1 sets, primary screen (AID 487);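 further: 100% = median nuclei count of all wells on the same plate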
- Condition description: HUVEC TNFalpha-induced E-selectin immunofluorescence imaging, at 2 µM; measured here: cell number, toxicity
Test readout: nuclei count (%)
Your answer should be a plain number; it is taken to be in %.

COC(=O)c1ccccc1NC(=O)C12CCC(C)(C(=O)O1)C2(C)C (stereo unspecified) ... 92.7
COc1ccc(OC)c(NS(=O)(=O)Cc2ccccc2)c1 ... 120
Cc1[nH]c(=O)[nH]c(=O)c1S(=O)(=O)N(C)Cc1ccccc1 ... 110
COC(=O)C1=C(N)Oc2cc(C)n(Cc3ccncc3)c(=O)c2C1c1cccnc1 (stereo unspecified) ... 104
c1ccc(-c2nc3nonc3c3nc4ccccc4n23)cc1 ... 94.2

Return nuclei count (reported value) for this molecule: CCN(c1cccc(C)c1)S(=O)(=O)c1ccc2[nH]c(=O)c(=O)[nH]c2c1
98

Check the records and state nuclei count for Cc1ccc(S(=O)(=O)N2CCCC2C(=O)n2nc(C)cc2C)cc1 (stereo unspecified)
93.5

Fill in reported nuclei count for this entry: N#Cc1cnn(Cc2ccc(Cl)cc2)c1N
91.4

Give the value of nuclei count reported for the following: Cc1ccc(-c2[nH]nc3c2C(c2ccoc2)C(C#N)=C(N)O3)cc1C (stereo unspecified)
126

Give nuclei count for the following molecule: CCOC(=O)N1CCN(Cc2nc3c(c(=O)[nH]c(=O)n3C)n2Cc2cc(C)ccc2C)CC1
119

Give the reported value of nuclei count for this record: Cc1nc(-c2ccccc2)sc1C(N)=O
117

* * *

Entries and their measured nuclei count follow.
- Procedure summary: reduction of polyQ htt aggregates in cells – imaging, exon1htt(103Q)mCFP cells, high-content imaging, primary screen (AID 483);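 further: compound exposure lasted 3 days before fixation; percent of the per-plate median nuclei count of sample wells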
- Condition description: exon1htt(103Q)mCFP cell line, aggregate imaging, at 2 µM; measured here: cell count, toxicity
Give just the number in %; leave the unit off.

CCN(C(C)=O)c1nnc(CSc2nc3ccccc3s2)s1 ... 96.4
COc1ccc2[nH]c(=O)c(CN(CCO)S(=O)(=O)c3ccc4c(c3)OCCO4)cc2c1 ... 105
O=C(CC1Oc2ccccc2NC1=O)NCCCN1CCOCC1 (stereo not given) ... 112
CCC1(CC)C(=O)N(C)C(=O)NC1=NCc1ccccc1 ... 107
CCOC(=O)CSc1nc2cc(C(=O)NCc3ccco3)ccc2c(=O)n1C1CCCCC1 ... 92

Pending compound:
Supply nuclei count value. Item: Cc1cc(C)nc(N2CCCC(C(=O)Nc3nc4ccc(S(C)(=O)=O)cc4s3)C2)n1 (stereo not given)
117

* * *

- Target or system: Voltage-gated potassium channel subunit beta-2 (Rattus norvegicus)
- Procedure summary: inhibitors of rat Kvbeta2 reductase activity – biochemical, NADPH fluorescence, primary screen (AID 622);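 further: slope of raw intensity against log time taken from 70 to 1610 s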
- Condition description: recombinant KvBeta, 4-cyanobenzaldehyde reduction, at 10 µM, stronger effect = higher value
The source made the active and inactive calls.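 Rule for the calls: active = fluorescence slope higher than the sample average by over 3 SD (cut at about -0.22 in these data, passing the limit was not always enough); inactive = the rest.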
Listing of entries alongside the reported fluorescence slope.

Example entries begin here.
CCOc1ccc(NS(=O)(=O)c2cc(Cl)ccc2OC)cc1 ... -0.282 (inactive)
CC12C(=O)N(CCC(=O)O)C(=O)C1C1C=CC2C1 (stereo unspecified) ... -0.456 (inactive)
CC(=O)Nc1ccccc1OCc1nnc(-c2cccs2)o1 ... -0.612 (inactive)
O=C(CC(CC(=O)c1ccccc1)C(=O)O)c1ccccc1 ... -0.525 (inactive)
CC1(C)C(c2cccs2)=[N+]([O-])C2(CCCCC/C2=N\O)N1O (stereo unspecified) ... -0.46 (inactive)
O=C(OCC#CCSc1nnc(-c2ccncc2)o1)c1cccs1 ... -0.426 (inactive)

For the molecule CCCC(=O)N1CCN(c2ccc(NC(=O)c3ccc(Br)o3)cc2)CC1 , report fluorescence slope.
-0.457 (inactive)

// fetch fluorescence slope given entry Cc1cc(NC(=O)C(C)(C)C)no1
-0.29 (inactive)

Tell me its fluorescence slope given CS(=O)(=O)N(CC(=O)Nc1ccc2c(c1)OCCO2)Cc1ccccc1 as the entry.
-0.413 (inactive)

Let me know recorded fluorescence slope for Cc1cc2c(=O)n(Cc3ccco3)c(SCC(=O)NCc3ccco3)nc2s1 , thanks.
-0.393 (inactive)

Report fluorescence slope, nothing else, for this molecule: O=C(c1cccs1)N(Cc1ccco1)Cc1cc2ccccc2[nH]c1=O
-0.343 (inactive)
